system: RNA polymerase II CTD phosphorylation (MDA-MB-231/NCI-H358 cells); assay: Inhibition of RNA polymerase II CTD phosphorylation in cell western assay; type: cell-based; settings: 4 hours incubation, phospho RNA Pol II Ser-5 or Ser-2
pEC50: −log10 of the molar value.
READOUT_TYPE: pEC50

INSERT INTO assay_data (compound, readout_value) VALUES
  ('C=CC(=O)N1CCC(C(=O)Nc2ccc(F)c(CNc3nc(NC4CCOCC4)nc4c(C(C)C)cnn34)c2)C1 (stereo not shown) [Compound 32]', '5.00 to 6.00'),
  ('CC(C)c1cnn2c(Nc3cccc(NC(=O)C4CCC(NC(=O)/C=C/CN(C)C)CC4)c3)nc(OC3CCN(C)CC3)nc12 (stereo not shown) [Compound 131]', '< 5.00'),
  ('C=CC(=O)N1CCC(C(=O)Nc2cccc(CNc3nc(NC4CCCC(N)C4)nc4c(C(C)C)cnn34)c2)C1 (stereo not shown) [Compound 15]', '< 5.00'),
  ('C=CC(=O)NC1(C(=O)Nc2cccc(CNc3nc(NC4CCOCC4)nc4c(C(C)C)cnn34)c2)CC1 [Compound 83]', '≥ 6.00'),
  ('C=CC(=O)N1CCCC(C(=O)Nc2cccc(CNc3nc(OC4CCN(C)CC4)nc4c(C(C)C)cnn34)c2)C1 (stereo not shown) [Compound 116]', '5.00 to 6.00'),
  ('C=CC(=O)NC1CCCC(C(=O)Nc2cccc(CNc3nc(OC4CCN(C)CC4)nc4c(C(C)C)cnn34)c2)C1 (stereo not shown) [Compound 114]', '5.00 to 6.00'),
  ('C=CC(=O)N1CCOCC1C(=O)Nc1cccc(CNc2nc(NC3CCOCC3)nc3c(C(C)C)cnn23)c1 (stereo not shown) [Compound 24]', '≥ 6.00');

###

Target: CDK7/CycH/MNAT1 (Homo sapiens (Human))
Experiment: Biochemical assay for CDK7 (TR-FRET kinase assay)
Settings: 60 min pre-incubation; 1 mM ATP; read-out: IC50
Experimental: The ability of compounds to inhibit CDK7 kinase activity was tested in a TR-FRET assay using 5 nM of CDK7/CycH/MNAT1 obtained from Invitrogen, USA. Test compounds were pre-incubated with the kinase at room temperature for 60 min. […] 1 nM Eu-labelled antiphospho-MBP antibody [Perkin Elmer, USA] was added, mixed well and the fluorescence emission at 615 nm and 665 nm [excitation at 340 nm] was measured. […] All the fluorescence measurements were made in a Victor 3 Multilabel Counter [Perkin Elmer, USA]. […]
READOUT_TYPE: IC50

INSERT INTO results (compound, readout_value) VALUES
  ('CC(C)c1cnn2c(NCc3cccc(NC(=O)/C=C/CN4CCOCC4)c3)nc(NC3CCOCC3)nc12 [Compound 51]', '300 to 1000 nM'),
  ('C=CC(=O)NC1CCCC(C(=O)Nc2cccc(CNc3nc(NC4CCOCC4)nc4c(C(C)C)cnn34)c2)C1 (stereo not shown) [Compound 22]', '< 300 nM'),
  ('CC(C)c1cnn2c(NCc3ccc(F)c(NC(=O)[C@H]4CC[C@@H](NC(=O)/C=C/CN(C)C)CC4)c3)nc(OC3CCN(C)CC3)nc12 [Compound 124]', '< 300 nM'),
  ('C=CC(=O)N1CCCC(C(=O)Nc2cccc(CNc3nc(NC4CCN(C)CC4)nc4c(C(C)C)cnn34)c2)C1 (stereo not shown) [Compound 8]', '< 300 nM');

###

Overview of reported pIC50 across a group of compounds:
target: CDK7/CycH/MNAT1 (Homo sapiens (Human), UniProt P50613); assay: Biochemical assay for CDK7 (TR-FRET kinase assay); settings: IC50, 60 min pre-incubation; 1 mM ATP
Sequence (P50613 whole entry): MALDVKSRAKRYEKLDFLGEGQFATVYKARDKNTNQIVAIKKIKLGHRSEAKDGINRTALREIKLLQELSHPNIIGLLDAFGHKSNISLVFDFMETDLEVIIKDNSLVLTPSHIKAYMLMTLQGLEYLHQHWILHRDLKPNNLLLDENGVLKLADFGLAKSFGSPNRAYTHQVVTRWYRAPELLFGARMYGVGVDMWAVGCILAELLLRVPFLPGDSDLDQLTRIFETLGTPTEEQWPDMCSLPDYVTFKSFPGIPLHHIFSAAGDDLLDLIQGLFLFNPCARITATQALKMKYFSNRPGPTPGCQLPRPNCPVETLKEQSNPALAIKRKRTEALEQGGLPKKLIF
Sequence (P51946 whole entry partner): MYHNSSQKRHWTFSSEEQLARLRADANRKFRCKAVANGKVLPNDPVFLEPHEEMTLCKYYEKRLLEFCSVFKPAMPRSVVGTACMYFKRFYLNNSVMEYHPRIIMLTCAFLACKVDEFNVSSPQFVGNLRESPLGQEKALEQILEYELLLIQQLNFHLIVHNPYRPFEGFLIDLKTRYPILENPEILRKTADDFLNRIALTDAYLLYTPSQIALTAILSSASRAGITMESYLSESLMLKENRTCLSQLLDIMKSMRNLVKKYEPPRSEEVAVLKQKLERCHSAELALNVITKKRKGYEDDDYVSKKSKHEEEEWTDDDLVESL
Sequence (P51948 whole entry partner): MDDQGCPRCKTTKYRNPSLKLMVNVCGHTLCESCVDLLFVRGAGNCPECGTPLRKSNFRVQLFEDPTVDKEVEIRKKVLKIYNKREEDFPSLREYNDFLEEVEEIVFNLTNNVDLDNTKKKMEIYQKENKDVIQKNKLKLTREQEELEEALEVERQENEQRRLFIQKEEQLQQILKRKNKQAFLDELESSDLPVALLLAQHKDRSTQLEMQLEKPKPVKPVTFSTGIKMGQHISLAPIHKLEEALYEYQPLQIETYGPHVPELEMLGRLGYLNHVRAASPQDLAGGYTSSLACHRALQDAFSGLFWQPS
pIC50: −log10 of the molar value.
READOUT_TYPE: pIC50

INSERT INTO assay_data (smi, readout_type, readout_value) VALUES
  ('CC(C)c1cnn2c(NCc3cccc(OC(=O)N4CCN(C(=O)/C=C/CN(C)C)CC4)c3)nc(NC3CCOCC3)nc12', 'pIC50', '> 6.52'),
  ('C=CC(=O)N1CCN(C(=O)Oc2cccc(CNc3nc(OC4CCN(C)CC4)nc4c(C(C)C)cnn34)c2)CC1', 'pIC50', '> 6.52');

###

target: CDK7/CycH/MNAT1 (Homo sapiens (Human), UniProt P50613); experiment: Biochemical assay for CDK7 (TR-FRET kinase assay); conditions: 10 μM compound; 60 min pre-incubation; 1 mM ATP; read-out: % inhibition @ 10 μM
Everything with inhibition at 10 µM lower than 90% is not fulfilled; everything else, including exactly 90%, is fulfilled.

INSERT INTO results (compound, category_label) VALUES
  ('C=CC(=O)N1CCC(C(=O)Nc2cccc(CNc3nc(OC4CCN(C)CC4)nc4c(C(C)C)cnn34)c2)C1 (single isomer, unassigned) [Compound 109]', 'fulfilled'),
  ('C=CC(=O)NCC(=O)Nc1cccc(CNc2nc(NC3CCOCC3)nc3c(C(C)C)cnn23)c1', 'fulfilled'),
  ('C=CC(=O)N1CCC(C(=O)Nc2cccc(CNc3nc(NC4CCOCC4)nc4c(C(C)C)cnn34)c2)C1 (single isomer, unassigned) [Compound 5]', 'fulfilled'),
  ('C=CC(=O)N1CCC1C(=O)Nc1ccc(C)c(CNc2nc(NC3CCOCC3)nc3c(C(C)C)cnn23)c1 (stereo not shown)', 'fulfilled'),
  ('C#CC(=O)N1CCOCC1C(=O)Nc1cccc(CNc2nc(NC3CCOCC3)nc3c(C(C)C)cnn23)c1 (stereo not shown)', 'fulfilled'),
  ('CC(C)c1cnn2c(NCc3cccc(NC(=O)C4CCN4C/C=C/C(=O)N(C)C)c3)nc(NC3CCOCC3)nc12 (stereo not shown)', 'not fulfilled');

###

molecular target: CDK7/CycH/MNAT1 (Homo sapiens (Human)); assay: Biochemical assay for CDK7 (TR-FRET kinase assay); settings: 10 μM compound; 60 min pre-incubation; 1 mM ATP; read-out: % inhibition @ 10 μM
READOUT_TYPE: inhibition at 10 µM (%)

INSERT INTO results (molecule, assay_system, readout_type, readout_value) VALUES
  ('C=CC(=O)N1CCCCC1C(=O)Nc1cc(F)cc(CNc2nc(NC3CCOCC3)nc3c(C(C)C)cnn23)c1 (stereo not shown)', 'CDK7/CycH/MNAT1 (Homo sapiens (Human))', 'inhibition at 10 µM', 91),
  ('CC(C)c1cnn2c(NCc3cccc(NC(=O)C4CCN(C(=O)/C=C/CN(C)C)C4)c3)nc(NC3CCOCC3)nc12 (stereo not shown)', 'CDK7/CycH/MNAT1 (Homo sapiens (Human))', 'inhibition at 10 µM', 98),
  ('CC(C)c1cnn2c(NCc3ccc(NC(=O)/C=C/CN4CCCC4)cc3)nc(NC3CCOCC3)nc12', 'CDK7/CycH/MNAT1 (Homo sapiens (Human))', 'inhibition at 10 µM', 94),
  ('C=CC(=O)N1CCCCC1C(=O)Nc1cccc(CNc2nc(NC3CCOCC3)nc3c(C(C)C)cnn23)c1 (stereo not shown)', 'CDK7/CycH/MNAT1 (Homo sapiens (Human))', 'inhibition at 10 µM', 96);

###

Molecular target: CDK7/CycH/MNAT1 (Homo sapiens (Human))
Assay: Biochemical assay for CDK7 (TR-FRET kinase assay)
Conditions: 10 μM compound; 60 min pre-incubation; 1 mM ATP; read-out: % inhibition @ 10 μM
Method: The ability of compounds to inhibit CDK7 kinase activity was tested in a TR-FRET assay using 5 nM of CDK7/CycH/MNAT1 obtained from Invitrogen, USA. Test compounds were pre-incubated with the kinase at room temperature for 60 min. […] 1 nM Eu-labelled antiphospho-MBP antibody [Perkin Elmer, USA] was added, mixed well and the fluorescence emission at 615 nm and 665 nm [excitation at 340 nm] was measured. […] All the fluorescence measurements were made in a Victor 3 Multilabel Counter [Perkin Elmer, USA]. […]
READOUT_TYPE: inhibition at 10 µM (%)

INSERT INTO results (compound, assay_system, readout_type, readout_value) VALUES
  ('CC(C)c1cnn2c(NCc3cccc(NC(=O)/C=C/CN4CCCC4)c3)nc(NC3CCOCC3)nc12', 'CDK7/CycH/MNAT1 (Homo sapiens (Human))', 'inhibition at 10 µM', 98),
  ('CC(C)c1cnn2c(Nc3cccc(C(=O)NC4CCCN(C(=O)/C=C/CN(C)C)C4)c3)nc(OC3CCN(C)CC3)nc12 (stereo not shown)', 'CDK7/CycH/MNAT1 (Homo sapiens (Human))', 'inhibition at 10 µM', 97),
  ('C=CC(=O)N1CCC(C(=O)Nc2cccc(CNc3nc(OCCCCN)nc4c(C(C)C)cnn34)c2)CC1', 'CDK7/CycH/MNAT1 (Homo sapiens (Human))', 'inhibition at 10 µM', 95),
  ('CC(C)c1cnn2c(NCc3cccc(NC(=O)/C=C/CN4CCCCC4)c3)nc(NC3CCOCC3)nc12', 'CDK7/CycH/MNAT1 (Homo sapiens (Human))', 'inhibition at 10 µM', 99);
